- assay_text: in vitro
- test_settings: rat, microsomes
assay_readout: half-life at 1 µM (h)
Please state the figure in h; there is no need to write the unit.

[in] Request the reported half-life at 1 µM associated with O=C1CCC(N2Cc3cc(CNC(=O)Nc4ccc(CCCOC5CNC5)c(Cl)c4)ccc3C2=O)C(=O)N1 (centres unmarked)
[out] 29.8

[in] Request the reported half-life at 1 µM associated with O=C1CCC(N2Cc3cc(CNC(=O)Nc4ccc(CCCOC5CCNCC5)c(Cl)c4)ccc3C2=O)C(=O)N1 (centres unmarked)
[out] 2.08

====

- Test system: SK-BR-3
- assay_text: In vitro anti-tumor activity of molecular glue compounds, CellTiter-Lumi cell viability assay
- Assay type: cell-based
- test_settings: Homo sapiens; SK-BR-3 cells, 96 h incubation; read-out: Cell inhibitory activity (IC50 values) SK-BR-3
pIC50: −log10 of the molar value.
Give measured pIC50 for each item. Keep answers brief.

[in] Request the reported pIC50 associated with CNCCOCCc1ccc(NC(=O)NCc2ccc3c(c2)CN(C2CCC(=O)NC2=O)C3=O)cc1Cl (stereo not shown) [Smol006, reference compound]
[out] < 7.00

[in] Request the reported pIC50 associated with O=C1CCC(N2Cc3cc(CNC(=O)Nc4ccc(CCCOC5CC6(CNC6)C5)c(Cl)c4)ccc3C2=O)C(=O)N1 (stereo not shown)
[out] > 8.00

[in] Request the reported pIC50 associated with O=C1CCC(N2Cc3cc(CNC(=O)Nc4ccc(COCCC5CCCNC5)c(Cl)c4)ccc3C2=O)C(=O)N1 (stereo not shown)
[out] 7.30 to 8.00

[in] Request the reported pIC50 associated with O=C1CCC(N2Cc3cc(CNC(=O)Nc4ccc(CCOCC5CNCCO5)c(Cl)c4)ccc3C2=O)C(=O)N1 (stereo not shown)
[out] > 8.00

====

- assay_text: in vitro
- test_settings: human, microsomes
assay_readout: CLint scaled at 1 µM (mL/min/kg)
Please state the figure in mL/min/kg; there is no need to write the unit.

[in] Request the reported CLint scaled at 1 µM associated with O=C1CCC(N2Cc3cc(CNC(=O)Nc4ccc(CCCOC5CNC5)c(Cl)c4)ccc3C2=O)C(=O)N1 (centres unmarked)
[out] 0.19

[in] Request the reported CLint scaled at 1 µM associated with O=C1CCC(N2Cc3cc(CNC(=O)Nc4ccc(CCCOC5CCNCC5)c(Cl)c4)ccc3C2=O)C(=O)N1 (centres unmarked)
[out] 7.03

====

- assay_text: in vitro
- test_settings: monkey, microsomes
assay_readout: half-life at 1 µM (h)
Please state the figure in h; there is no need to write the unit.

[in] Request the reported half-life at 1 µM associated with O=C1CCC(N2Cc3cc(CNC(=O)Nc4ccc(CCCOC5CCNCC5)c(Cl)c4)ccc3C2=O)C(=O)N1 (centres unmarked)
[out] 2.47

[in] Request the reported half-life at 1 µM associated with O=C1CCC(N2Cc3cc(CNC(=O)Nc4ccc(CCCOC5CNC5)c(Cl)c4)ccc3C2=O)C(=O)N1 (centres unmarked)
[out] 132

====

- assay_text: in vitro
- test_settings: rat, liver microsomes
assay_readout: half-life at 1 µM (h)
Please state the figure in h; there is no need to write the unit.

[in] Request the reported half-life at 1 µM associated with O=C1CCC(N2Cc3cc(CNC(=O)Nc4ccc(CCCOC5CCCNC5)c(Cl)c4)ccc3C2=O)C(=O)N1 (stereo not shown)
[out] 6.32

====

- Tested on: SK-BR-3
- assay_text: In vitro anti-tumor activity of molecular glue compounds, CellTiter-Lumi cell viability assay
- Type: cell-based
- test_settings: Homo sapiens; SK-BR-3 cells, 96 h incubation; read-out: Cell inhibitory activity (IC50 values) SK-BR-3
- Protocol: Different tumor cells were all commercially available and used for evaluating the anti-tumor inhibitory activity of the compounds of the present disclosure. Various tumor cells were cultured until the cell confluency reached 80%-90%, with cell viability above 90% as determined by trypan blue exclusion. Then, the cells were plated. […] After the reaction was completed, the luminescence was measured on a multi-mode microplate reader. The cell inhibition rate was determined according to the luminescence. […]
Give measured IC50 for each item. Keep answers brief.

[in] Request the reported IC50 associated with O=C1CCC(N2Cc3cc(CNC(=O)Nc4ccc(CCOC5CCCNC5)c(Cl)c4)ccc3C2=O)C(=O)N1 (centres unmarked)
[out] 10 to 50 nM

[in] Request the reported IC50 associated with O=C1CCC(N2Cc3cc(CNC(=O)Nc4ccc(CCCOCC5CCCNC5)c(Cl)c4)ccc3C2=O)C(=O)N1 (centres unmarked)
[out] < 10 nM

[in] Request the reported IC50 associated with CNCC1CCCC(OCCc2ccc(NC(=O)NCc3ccc4c(c3)CN(C3CCC(=O)NC3=O)C4=O)cc2Cl)C1 (centres unmarked)
[out] 10 to 50 nM

[in] Request the reported IC50 associated with O=C1CCC(N2Cc3cc(CNC(=O)Nc4ccc(CCOCCNC5CC5)c(Cl)c4)ccc3C2=O)C(=O)N1 (centres unmarked)
[out] > 100 nM

[in] Request the reported IC50 associated with CNC1CCCC(OCCc2ccc(NC(=O)NCc3ccc4c(c3)CN(C3CCC(=O)NC3=O)C4=O)cc2Cl)C1 (centres unmarked)
[out] < 10 nM

[in] Request the reported IC50 associated with O=C1CCC(N2Cc3cc(CNC(=O)Nc4ccc(CCCOC5CNCC6CCCCC65)c(Cl)c4)ccc3C2=O)C(=O)N1 (centres unmarked)
[out] 10 to 50 nM

[in] Request the reported IC50 associated with O=C1CCC(N2Cc3cc(CNC(=O)Nc4ccc(COCCCC5CCCNC5)c(Cl)c4)ccc3C2=O)C(=O)N1 (centres unmarked)
[out] 10 to 50 nM

[in] Request the reported IC50 associated with O=C1CCC(N2Cc3cc(CNC(=O)Nc4ccc(CCOCCNC5CCCCC5)c(Cl)c4)ccc3C2=O)C(=O)N1 (centres unmarked)
[out] 50 to 100 nM
